procedure.text: Phospholipid binding at pH 7.4 on IAM PC.DD2 HPLC column
Type: physicochemical
assay.context: pH 7.4, derived from CHI IAM by equation 1
recorded.endpoint: log k IAM

molecule=Nc1nnc(-c2cccc(Cl)c2Cl)c(N)n1 recorded_endpoint="log k IAM" test_value=1.49
molecule=CN1CCc2cccc3c2[C@H]1Cc1ccc(O)c(O)c1-3 recorded_endpoint="log k IAM" test_value=2.24
molecule="CCn1cc(C(=O)O)c(=O)c2cc(F)c(N3CCNC(C)C3)c(F)c21 (centres unmarked)" recorded_endpoint="log k IAM" test_value=2.16
molecule="CN(C)CCOC(c1ccccc1)c1ccccc1 [Diphenhydramine]" recorded_endpoint="log k IAM" test_value=2.06
molecule="COC(=O)C1=C(C)NC(C)=C(C(=O)OC(C)C)C1c1cccc2nonc12 (centres unmarked)" recorded_endpoint="log k IAM" test_value=2.21
molecule=O=c1[nH]c2ccccc2n1CCCN1CCC(n2c(=O)[nH]c3cc(Cl)ccc32)CC1 recorded_endpoint="log k IAM" test_value=2.42
molecule="CCCN1C[C@H](CSC)C[C@@H]2c3cccc4[nH]cc(c34)C[C@H]21 [Pergolide]" recorded_endpoint="log k IAM" test_value=2.85
molecule=CC[C@H]1OC(=O)[C@H](C)[C@@H](O[C@H]2C[C@@](C)(OC)[C@@H](O)[C@H](C)O2)[C@H](C)[C@@H](O[C@@H]2O[C@H](C)C[C@H](N(C)C)[C@H]2O)[C@](C)(OC)C[C@@H](C)C(=O)[C@H](C)[C@@H](O)[C@]1(C)O recorded_endpoint="log k IAM" test_value=2.70

----------
System: alpha-1-acid-glycoprotein (AGP)
procedure.text: Protein binding on Chiralpak AGP HPLC column
assay.context: pH 7.4, Chiralpak AGP
recorded.endpoint: log k AGP

compound=CC(C)c1nc(CN(C)C(=O)N[C@H](C(=O)N[C@@H](Cc2ccccc2)C[C@H](O)[C@H](Cc2ccccc2)NC(=O)OCc2cncs2)C(C)C)cs1 test_value=0.64
compound="CC(C)NCC(O)COc1cccc2ccccc12 (stereo not drawn)" test_value=0.84
compound=O=c1n(CCCN2CCN(c3cccc(Cl)c3)CC2)nc2ccccn12 test_value=0.46
compound="CC1COc2c(N3CCN(C)CC3)c(F)cc3c(=O)c(C(=O)O)cn1c23 (stereo not drawn)" test_value=-0.81
compound=CN1CCC[C@@H]1CCO[C@](C)(c1ccccc1)c1ccc(Cl)cc1 test_value=1.18
compound="CC(C)COCC(CN(Cc1ccccc1)c1ccccc1)N1CCCC1 (stereo not drawn)" test_value=1.14
compound="CCCCN1CCCCC1C(=O)Nc1c(C)cccc1C (stereo not drawn)" test_value=1.35
compound="O=c1[nH]c2ccccc2n1C1CCN(CCCC(c2ccc(F)cc2)c2ccc(F)cc2)CC1 [Pimozide]" test_value=1.47
compound="COc1cc(N)c(Cl)cc1C(=O)NC1CCN(CCCOc2ccc(F)cc2)CC1OC (stereo not drawn) [Cisapride]" test_value=0.84

----------
Each record here notes measured chromatographic logD.
procedure.text: CHI lipophilicity by gradient reversed-phase HPLC (Gemini NX-C-18)
assay.context: Gemini NX-C-18 reversed-phase HPLC column, pH 7.4
recorded.endpoint: chromatographic logD

compound=CC[C@H]1OC(=O)[C@H](C)[C@@H](O[C@H]2C[C@@](C)(OC)[C@@H](O)[C@H](C)O2)[C@H](C)[C@@H](O[C@@H]2O[C@H](C)C[C@H](N(C)C)[C@H]2O)[C@](C)(O)C[C@@H](C)C(=O)[C@H](C)[C@@H](O)[C@]1(C)O test_value=1.31
compound="CCCN1C[C@H](CSC)C[C@@H]2c3cccc4[nH]cc(c34)C[C@H]21 [Pergolide]" test_value=2.47
compound=CCCCC1=NC2(CCCC2)C(=O)N1Cc1ccc(-c2ccccc2-c2nnn[nH]2)cc1 test_value=1.39
compound=COCC(=O)O[C@]1(CCN(C)CCCc2nc3ccccc3[nH]2)CCc2cc(F)ccc2[C@@H]1C(C)C test_value=2.96
compound=CCCCN1CCCC[C@H]1C(=O)Nc1c(C)cccc1C test_value=3.25
compound=O=c1n(CCCN2CCN(c3cccc(Cl)c3)CC2)nc2ccccn12 test_value=2.51
compound="NC(=O)N1c2ccccc2C=Cc2ccccc21 [Carbamazepine]" test_value=1.22
compound=CCCOC(C(=O)OC1CCN(C)CC1)(c1ccccc1)c1ccccc1 test_value=3.84

----------
System: alpha-1-acid-glycoprotein (AGP)
procedure.text: Protein binding on Chiralpak AGP HPLC column
assay.context: pH 7.4, Chiralpak AGP
// reported log k AGP for each item listed
recorded.endpoint: log k AGP

compound=CCCOC(C(=O)OC1CCN(C)CC1)(c1ccccc1)c1ccccc1 assayed_target="alpha-1-acid-glycoprotein (AGP)" test_value=0.94
compound="NC(=O)N1c2ccccc2C=Cc2ccccc21 [Carbamazepine]" assayed_target="alpha-1-acid-glycoprotein (AGP)" test_value=-0.85
compound="O=C(NCC1CCCCN1)c1cc(OCC(F)(F)F)ccc1OCC(F)(F)F (centres unmarked) [Flecainide]" assayed_target="alpha-1-acid-glycoprotein (AGP)" test_value=0.16
compound="Clc1ccc(COC(Cn2ccnc2)c2ccc(Cl)cc2Cl)c(Cl)c1 (centres unmarked)" assayed_target="alpha-1-acid-glycoprotein (AGP)" test_value=1.26
compound=COc1cc(Cc2cnc(N)nc2N)cc(OC)c1OC assayed_target="alpha-1-acid-glycoprotein (AGP)" test_value=-0.07
compound="OC(c1cc(C(F)(F)F)nc2c(C(F)(F)F)cccc12)C1CCCCN1 (centres unmarked)" assayed_target="alpha-1-acid-glycoprotein (AGP)" test_value=1.11
compound=CCCCC1=NC2(CCCC2)C(=O)N1Cc1ccc(-c2ccccc2-c2nnn[nH]2)cc1 assayed_target="alpha-1-acid-glycoprotein (AGP)" test_value=1.10
compound=CNCCCC12CCC(c3ccccc31)c1ccccc12 assayed_target="alpha-1-acid-glycoprotein (AGP)" test_value=0.99
compound=CCOc1ccccc1OCCN[C@H](C)Cc1ccc(OC)c(S(N)(=O)=O)c1 assayed_target="alpha-1-acid-glycoprotein (AGP)" test_value=0.60
compound="COc1cc2nc(N(C)CCCNC(=O)C3CCCO3)nc(N)c2cc1OC (centres unmarked)" assayed_target="alpha-1-acid-glycoprotein (AGP)" test_value=0.32
compound="CN(C)CCC(c1ccc(Br)cc1)c1ccccn1 (centres unmarked)" assayed_target="alpha-1-acid-glycoprotein (AGP)" test_value=0.68

----------
Entries annotated with measured log k IAM
procedure.text: Phospholipid binding at pH 7.4 on IAM PC.DD2 HPLC column
Assay type: physicochemical
assay.context: pH 7.4, derived from CHI IAM by equation 1
recorded.endpoint: log k IAM

compound=CCCOC(C(=O)OC1CCN(C)CC1)(c1ccccc1)c1ccccc1 test_value=3.12
compound=CC(=O)S[C@@H]1CC2=CC(=O)CC[C@]2(C)[C@H]2CC[C@@]3(C)[C@@H](CC[C@@]34CCC(=O)O4)[C@H]12 test_value=2.12
compound=O=C1NC(=O)C(c2ccccc2)(c2ccccc2)N1 test_value=1.78
compound="Cc1nccn1CC1CCc2c(c3ccccc3n2C)C1=O (stereo not shown)" test_value=2.22
compound="CN(C)CCC(c1ccc(Br)cc1)c1ccccn1 (stereo not shown)" test_value=2.8
compound="CC1COc2c(N3CCN(C)CC3)c(F)cc3c(=O)c(C(=O)O)cn1c23 (stereo not shown)" test_value=1.62
compound="CCC1=C(C)CN(C(=O)NCCc2ccc(S(=O)(=O)NC(=O)N[C@H]3CC[C@H](C)CC3)cc2)C1=O [Glimepiride]" test_value=1.83
compound=CC[C@H]1OC(=O)[C@H](C)[C@@H](O[C@H]2C[C@@](C)(OC)[C@@H](O)[C@H](C)O2)[C@H](C)[C@@H](O[C@@H]2O[C@H](C)C[C@H](N(C)C)[C@H]2O)[C@](C)(O)C[C@@H](C)C(=O)[C@H](C)[C@@H](O)[C@]1(C)O test_value=2.20
compound=COCC(=O)O[C@]1(CCN(C)CCCc2nc3ccccc3[nH]2)CCc2cc(F)ccc2[C@@H]1C(C)C test_value=2.96
compound=CN(C)CCCN1c2ccccc2Sc2ccc(Cl)cc21 test_value=2.64
compound=COc1ccc(CCN2CCC(Nc3nc4ccccc4n3Cc3ccc(F)cc3)CC2)cc1 test_value=2.77
compound="CC(C)NCC(O)c1ccc(NS(C)(=O)=O)cc1 (stereo not shown)" test_value=1.43
compound=CC(C)c1nc(CN(C)C(=O)N[C@H](C(=O)N[C@@H](Cc2ccccc2)C[C@H](O)[C@H](Cc2ccccc2)NC(=O)OCc2cncs2)C(C)C)cs1 test_value=2.2
compound="NC(=O)N1c2ccccc2C=Cc2ccccc21 [Carbamazepine]" test_value=1.53
compound=O=C(O[C@@H]1C[C@@H]2C[C@H]3C[C@H](C1)N2CC3=O)c1c[nH]c2ccccc12 test_value=1.95
compound=CC(C)(C)c1ccc(C(=O)CCCN2CCC(OC(c3ccccc3)c3ccccc3)CC2)cc1 test_value=3.12
compound="COc1cc(N)c(Cl)cc1C(=O)NC1CCN(CCCOc2ccc(F)cc2)CC1OC (stereo not shown) [Cisapride]" test_value=2.35
compound="COc1ccc(Cl)cc1C(=O)NCCc1ccc(S(=O)(=O)NC(=O)NC2CCCCC2)cc1 [Glibenclamide]" test_value=1.93
compound="CCN(CC)CCNC(=O)c1ccc(N)cc1 [Procainamide]" test_value=1.29
compound="Clc1ccc(COC(Cn2ccnc2)c2ccc(Cl)cc2Cl)c(Cl)c1 (stereo not shown)" test_value=2.89
compound=CC[C@H](C)C(=O)O[C@H]1C[C@@H](C)C=C2C=C[C@H](C)[C@H](CC[C@@H]3C[C@@H](O)CC(=O)O3)[C@H]21 test_value=2.46
compound="CSc1ccc2c(c1)N(CCC1CCCCN1C)c1ccccc1S2 (stereo not shown)" test_value=3.65
compound=O=C(O)c1cn(C2CC2)c2cc(N3CCNCC3)c(F)cc2c1=O test_value=1.59
compound="CC(=O)N1CCN(c2ccc(OCC3COC(Cn4ccnc4)(c4ccc(Cl)cc4Cl)O3)cc2)CC1 (stereo not shown)" test_value=2.16
compound=CNCCCC1c2ccccc2C=Cc2ccccc21 test_value=2.79
compound=Cc1ccc(O)c([C@H](CCN(C(C)C)C(C)C)c2ccccc2)c1 test_value=2.83
compound="O=C(NCC1CCCCN1)c1cc(OCC(F)(F)F)ccc1OCC(F)(F)F (stereo not shown) [Flecainide]" test_value=2.33
compound=CCCc1nn(C)c2c(=O)[nH]c(-c3cc(S(=O)(=O)N4CCN(C)CC4)ccc3OCC)nc12 test_value=2.03
compound=CNCCCC12CCC(c3ccccc31)c1ccccc12 test_value=3.03
compound=COc1cc(Cc2cnc(N)nc2N)cc(OC)c1OC test_value=1.01
compound="CN1C2CCCC1CC(NC(=O)c1nn(C)c3ccccc13)C2 (stereo not shown)" test_value=2.53
compound="CC(C)NCC(O)COc1ccc(CC(N)=O)cc1 (stereo not shown)" test_value=1.14
compound="CC(C)NCC(O)COc1cccc2ccccc12 (stereo not shown)" test_value=2.36
compound=CN1CCN(C2=Nc3cc(Cl)ccc3Nc3ccccc32)CC1 test_value=2.83
